Each item that follows carries a reported IC50.
Target: Protein kinase Pfmrk (Plasmodium falciparum)
Sequence (P90584 whole entry): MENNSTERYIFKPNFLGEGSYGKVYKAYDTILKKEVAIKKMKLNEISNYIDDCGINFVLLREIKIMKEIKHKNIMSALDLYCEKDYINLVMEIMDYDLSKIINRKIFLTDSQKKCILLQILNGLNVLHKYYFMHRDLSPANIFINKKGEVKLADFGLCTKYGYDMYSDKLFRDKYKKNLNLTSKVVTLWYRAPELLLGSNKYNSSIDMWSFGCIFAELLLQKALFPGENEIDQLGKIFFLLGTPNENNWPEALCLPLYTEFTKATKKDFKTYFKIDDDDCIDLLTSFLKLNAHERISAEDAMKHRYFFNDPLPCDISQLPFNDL
Test: Inhibition of Plasmodium falciparum cyclin dependent protein kinase (Pfmrk)
Provide the reading as a plain figure in µM.

Below, 3 compounds whose answers are already recorded.
State its IC50 on Protein kinase Pfmrk (Plasmodium falciparum): Oc1ccc2nc(O)c3c4ccccc4oc3c2c1
539

Proceed to O=C(O)COc1cccc(-c2cc3ccccc3nc2O)c1
102

Proceed to OCCOc1cccc(-c2cc3ccccc3nc2O)c1
18

// moving on: another record for IC50
State its IC50 on Protein kinase Pfmrk (Plasmodium falciparum): Oc1ccc2nc3oc4ccccc4c3c(O)c2c1
187
